Sequence of the target: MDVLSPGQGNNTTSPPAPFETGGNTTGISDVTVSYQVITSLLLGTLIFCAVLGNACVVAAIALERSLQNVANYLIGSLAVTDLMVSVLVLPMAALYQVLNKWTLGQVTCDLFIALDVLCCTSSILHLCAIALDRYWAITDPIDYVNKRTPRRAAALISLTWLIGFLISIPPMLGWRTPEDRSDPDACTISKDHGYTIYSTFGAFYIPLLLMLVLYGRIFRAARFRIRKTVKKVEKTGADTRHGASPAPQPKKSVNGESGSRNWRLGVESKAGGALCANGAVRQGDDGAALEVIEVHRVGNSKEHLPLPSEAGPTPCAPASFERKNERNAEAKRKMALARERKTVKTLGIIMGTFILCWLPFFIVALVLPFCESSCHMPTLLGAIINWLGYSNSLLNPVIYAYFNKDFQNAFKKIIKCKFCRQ
Field: AC50. Provide a value for each of the compounds that follow.

Query block: Need AC50, item Cc1nc(-c2ccc(OCC(C)C)c(C#N)c2)sc1C(=O)O
Result block: > 30 µM

Query block: Need AC50, item O=C(Nc1ccccc1)OCC(CN1CCCCC1)OC(=O)Nc1ccccc1 (configuration not stated)
Result block: > 30 µM

Query block: Need AC50, item CCc1ccc(CCOc2ccc(CC3SC(=O)NC3=O)cc2)nc1 (configuration not stated)
Result block: > 30 µM

Query block: Need AC50, item OCCN1CCN(CCCN2c3ccccc3C=Cc3ccccc32)CC1
Result block: 9.25 µM

Query block: Need AC50, item COc1ccc2c(c1)OC(C)(C)C(c1ccccc1)C2c1ccc(OCCN2CCCC2)cc1 (configuration not stated)
Result block: 9.91 µM

Query block: Need AC50, item Nc1nc(-n2cc(C(=O)O)c(=O)c3cc(F)c(N4CC(O)C4)c(Cl)c32)c(F)cc1F
Result block: > 30 µM

Query block: Need AC50, item CCO/N=C(\C(=O)N[C@@H]1C(=O)N2C(C(=O)[O-])=C(Sc3nc(-c4cc[n+](C)cc4)cs3)CS[C@H]12)c1nsc(N)n1
Result block: > 30 µM

---

Field: AC50. Provide a value for each of the compounds that follow.

Query block: Requested read-out AC50, target or system Vasopressin V1a receptor (Homo sapiens, UniProt P37288), entry CN1CCc2cccc3c2[C@H]1Cc1ccc(O)c(O)c1-3; further: assay procedure not described here
Result block: > 30 µM

Query block: Requested read-out AC50, target or system Vasopressin V1a receptor (Homo sapiens, UniProt P37288), entry N[C@@H](C(=O)N[C@@H]1C(=O)N2C(C(=O)O)=C(Cl)CS[C@H]12)c1ccccc1 [CEFACLOR ANHYDROUS]; further: assay procedure not described here
Result block: > 30 µM

Query block: Requested read-out AC50, target or system Vasopressin V1a receptor (Homo sapiens, UniProt P37288), entry CCNC(C)Cc1cccc(C(F)(F)F)c1 (stereo not given); further: assay procedure not described here
Result block: > 10 µM

Query block: Requested read-out AC50, target or system Vasopressin V1a receptor (Homo sapiens, UniProt P37288), entry Cc1cc(-c2ccccc2)nnc1NCCN1CCOCC1; further: assay procedure not described here
Result block: > 10 µM

Query block: Requested read-out AC50, target or system Vasopressin V1a receptor (Homo sapiens, UniProt P37288), entry C1=Cc2cccc(OCC3CNCCO3)c2C1 (stereo not given); further: assay procedure not described here
Result block: > 30 µM

Query block: Requested read-out AC50, target or system Vasopressin V1a receptor (Homo sapiens, UniProt P37288), entry Cc1c(Cl)cccc1Nc1ccccc1C(=O)O; further: assay procedure not described here
Result block: > 30 µM

Query block: Requested read-out AC50, target or system Vasopressin V1a receptor (Homo sapiens, UniProt P37288), entry CCCC(CCC)C(=O)O[C@H]1C[C@H]2CC[C@@H](C1)[N+]2(C)C; further: assay procedure not described here
Result block: > 30 µM

Query block: Requested read-out AC50, target or system Vasopressin V1a receptor (Homo sapiens, UniProt P37288), entry O=C(O)CCCc1ccccc1; further: assay procedure not described here
Result block: > 30 µM

Query block: Requested read-out AC50, target or system Vasopressin V1a receptor (Homo sapiens, UniProt P37288), entry CC(C)C(=O)Nc1ccc([N+](=O)[O-])c(C(F)(F)F)c1 [FLUTAMIDE]; further: assay procedure not described here
Result block: > 30 µM

Query block: Requested read-out AC50, target or system Vasopressin V1a receptor (Homo sapiens, UniProt P37288), entry N[C@@H](CSCC(=O)O)C(=O)O; further: assay procedure not described here
Result block: > 30 µM

---

Entries below carry reported AC50 on Gamma-aminobutyric acid receptor subunit alpha-1 (Rattus norvegicus).
Sequence (P62813 whole entry): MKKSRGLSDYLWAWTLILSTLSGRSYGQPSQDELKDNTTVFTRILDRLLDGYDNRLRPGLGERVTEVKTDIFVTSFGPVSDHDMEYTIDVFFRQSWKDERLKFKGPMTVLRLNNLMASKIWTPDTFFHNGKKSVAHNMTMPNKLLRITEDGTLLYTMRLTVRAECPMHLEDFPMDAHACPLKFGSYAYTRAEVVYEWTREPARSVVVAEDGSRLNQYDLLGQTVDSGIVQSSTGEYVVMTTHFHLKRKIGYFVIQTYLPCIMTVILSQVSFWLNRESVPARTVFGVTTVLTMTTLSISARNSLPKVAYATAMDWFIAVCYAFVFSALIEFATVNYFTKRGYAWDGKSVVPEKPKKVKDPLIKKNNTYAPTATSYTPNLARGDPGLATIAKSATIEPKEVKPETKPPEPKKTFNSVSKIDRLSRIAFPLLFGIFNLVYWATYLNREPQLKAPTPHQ

Query block: Need AC50, item CC(=O)N[C@H]1[C@H]([C@H](O)[C@H](O)CO)OC(C(=O)O)=C[C@@H]1N=C(N)N
Result block: > 10 µM

Query block: Need AC50, item CC/C=C\C/C=C\C/C=C\CCCCCCCC(=O)O
Result block: > 30 µM

Query block: Need AC50, item Nc1ncnc2c1ncn2[C@@H]1O[C@H](COP(=O)(O)O)[C@@H](O)[C@H]1O [ADENOSINE PHOSPHATE]
Result block: > 30 µM

Query block: Need AC50, item C1=Cc2cccc(OCC3CNCCO3)c2C1 (centres undefined)
Result block: > 30 µM

Query block: Need AC50, item CCOC(=O)[C@H](CCc1ccccc1)N[C@H]1CCCN2CCC[C@@H](C(=O)O)N2C1=O
Result block: > 30 µM

Query block: Need AC50, item C#CC1(OC(N)=O)CCCCC1 [ETHINAMATE]
Result block: > 10 µM

Query block: Need AC50, item CN1CCC2=C(C1)C(c1ccccc1)c1ccccc12 (centres undefined)
Result block: > 10 µM

Query block: Need AC50, item COC(=O)C1=C(C)NC(C)=C(C(=O)OC)C1c1ccccc1[N+](=O)[O-]
Result block: > 10 µM

Query block: Need AC50, item CC(C)(Oc1ccc(C2CC2(Cl)Cl)cc1)C(=O)O (centres undefined) [CIPROFIBRATE]
Result block: > 30 µM

---

Biological target: UniProtKB P35348
Sequence (P35348 whole entry): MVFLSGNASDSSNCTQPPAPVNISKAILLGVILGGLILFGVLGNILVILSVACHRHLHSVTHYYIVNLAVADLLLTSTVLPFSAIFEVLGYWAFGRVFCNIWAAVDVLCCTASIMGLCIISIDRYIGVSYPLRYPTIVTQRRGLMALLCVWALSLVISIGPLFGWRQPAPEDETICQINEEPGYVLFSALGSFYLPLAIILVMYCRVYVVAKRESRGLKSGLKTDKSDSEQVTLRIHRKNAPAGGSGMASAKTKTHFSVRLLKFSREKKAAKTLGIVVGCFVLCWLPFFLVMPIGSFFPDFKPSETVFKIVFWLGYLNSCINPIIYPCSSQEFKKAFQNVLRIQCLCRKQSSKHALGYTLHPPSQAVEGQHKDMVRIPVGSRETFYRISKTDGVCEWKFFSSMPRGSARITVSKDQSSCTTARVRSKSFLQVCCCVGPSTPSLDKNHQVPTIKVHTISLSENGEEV
Type: functional, cell-based
Observable: AC50

Query block: Need AC50, item Sc1ncnc2nc[nH]c12 [MERCAPTOPURINE ANHYDROUS]
Result block: > 30 µM

Query block: Need AC50, item O=C1CN=C(c2ccccc2)c2c(sc3c2CCCC3)N1
Result block: > 30 µM

Query block: Need AC50, item Nc1nc2c(ncn2CCC(CO)CO)c(=O)[nH]1
Result block: > 30 µM

Query block: Need AC50, item CS(=O)(=O)Nc1cc2occ(NC=O)c(=O)c2cc1Oc1ccccc1
Result block: > 30 µM

Query block: Need AC50, item O=C1c2c(O)c(=O)ccn2N([C@@H]2c3ccccc3SCc3c2ccc(F)c3F)[C@@H]2COCCN12
Result block: > 30 µM

Query block: Need AC50, item CCOC(=O)c1ccc(O)cc1
Result block: > 30 µM

Query block: Need AC50, item Cc1c(O)cccc1C(=O)N[C@@H](CSc1ccccc1)[C@H](O)CN1C[C@H]2CCCC[C@H]2C[C@H]1C(=O)NC(C)(C)C
Result block: > 30 µM

Query block: Need AC50, item O=C1[C@H](CC[C@H](O)c2ccc(F)cc2)[C@@H](c2ccc(O)cc2)N1c1ccc(F)cc1
Result block: 9.94 µM

Query block: Need AC50, item CCC(Cc1c(I)cc(I)c(N)c1I)C(=O)O (configuration not stated)
Result block: > 30 µM

Query block: Need AC50, item O=C1c2ccccc2C(=O)C1C(=O)C(c1ccccc1)c1ccccc1
Result block: 4.95 µM

Query block: Need AC50, item CN(C)c1ccc(C(=C2C=CC(=[N+](C)C)C=C2)c2ccc(N(C)C)cc2)cc1
Result block: > 30 µM

Query block: Need AC50, item C[C@H]1O[C@H](O[C@H]2[C@H](O)[C@@H](O)[C@@H](O[C@H]3[C@H](O)[C@@H](O)C(O)O[C@@H]3CO)O[C@@H]2CO)[C@H](O)[C@@H](O)[C@@H]1N[C@H]1C=C(CO)[C@@H](O)[C@H](O)[C@H]1O (some centres not stated)
Result block: > 30 µM

Query block: Need AC50, item CN(C)CCCN1c2ccccc2CCc2ccc(Cl)cc21
Result block: > 30 µM

Query block: Need AC50, item Cc1nc(-c2ccc(OCC(C)C)c(C#N)c2)sc1C(=O)O
Result block: > 30 µM

Query block: Need AC50, item NCc1ccccc1CC(=O)N[C@@H]1C(=O)N2C(C(=O)O)=C(CSc3nnnn3CC(=O)O)CS[C@H]12 [CEFORANIDE]
Result block: > 30 µM

Query block: Need AC50, item CCOC(=O)C(c1c(O)c2ccccc2oc1=O)c1c(O)c2ccccc2oc1=O [ETHYL BISCOUMACETATE]
Result block: > 30 µM

Query block: Need AC50, item CCc1ccc(CCOc2ccc(CC3SC(=O)NC3=O)cc2)nc1 (configuration not stated)
Result block: > 30 µM

---

Target: UniProt Q9Y5N1
Sequence (Q9Y5N1 whole entry): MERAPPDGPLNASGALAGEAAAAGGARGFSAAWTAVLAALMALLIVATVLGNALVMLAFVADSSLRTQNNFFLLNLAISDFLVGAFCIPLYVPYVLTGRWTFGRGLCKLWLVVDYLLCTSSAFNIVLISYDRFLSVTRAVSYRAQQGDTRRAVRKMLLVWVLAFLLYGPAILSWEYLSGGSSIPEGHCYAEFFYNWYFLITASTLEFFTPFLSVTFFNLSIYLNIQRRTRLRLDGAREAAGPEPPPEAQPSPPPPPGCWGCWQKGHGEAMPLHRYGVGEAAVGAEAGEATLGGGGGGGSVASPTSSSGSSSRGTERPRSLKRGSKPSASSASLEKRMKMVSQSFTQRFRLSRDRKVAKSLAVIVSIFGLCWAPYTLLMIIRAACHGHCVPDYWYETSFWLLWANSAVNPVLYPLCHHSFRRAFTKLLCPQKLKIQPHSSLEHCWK
Field: AC50. Provide a value for each of the molecules that follow.

Query block: Need AC50, item CCC(C(=O)O)c1ccc(CC(C)C)cc1 (centres undefined)
Result block: > 30 µM

Query block: Need AC50, item CC(=O)O[C@]1(C(C)=O)CC[C@H]2[C@@H]3C[C@H](C)C4=CC(=O)CC[C@]4(C)[C@H]3CC[C@@]21C [MEDROXYPROGESTERONE ACETATE]
Result block: > 30 µM

Query block: Need AC50, item C[C@H]1C[C@@H]2[C@H]([C@@H](O)C[C@@]3(C)[C@H]2CC[C@]3(O)C(=O)COC(=O)CCC(=O)O)[C@@]2(C)C=CC(=O)C=C12 [METHYLPREDNISOLONE HEMISUCCINATE]
Result block: > 30 µM

Query block: Need AC50, item CN1CC(=O)N2[C@H](c3ccc4c(c3)OCO4)c3[nH]c4ccccc4c3C[C@@H]2C1=O
Result block: > 10 µM
